Please provide measured inhibition at 0.3 µM for the entries that follow.
Biological target: β-secretase(BACE) (Homo sapiens)
Construct: purchased Panvera
Sequence (P56817 46-501): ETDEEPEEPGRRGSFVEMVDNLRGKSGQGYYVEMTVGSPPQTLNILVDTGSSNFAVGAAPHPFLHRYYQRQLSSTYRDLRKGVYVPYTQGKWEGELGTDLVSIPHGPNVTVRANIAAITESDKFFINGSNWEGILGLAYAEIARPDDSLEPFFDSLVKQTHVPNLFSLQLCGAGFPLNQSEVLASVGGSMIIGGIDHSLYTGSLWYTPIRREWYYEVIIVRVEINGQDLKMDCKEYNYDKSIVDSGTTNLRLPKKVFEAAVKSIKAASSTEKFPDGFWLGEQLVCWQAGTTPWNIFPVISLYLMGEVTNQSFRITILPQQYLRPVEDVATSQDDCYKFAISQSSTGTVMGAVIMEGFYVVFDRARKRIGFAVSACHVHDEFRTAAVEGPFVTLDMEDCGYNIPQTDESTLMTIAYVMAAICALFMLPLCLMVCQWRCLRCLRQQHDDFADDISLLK
Assay: BACE FS1% Inhibition Assay
Format: biochemical
Conditions: 0.3 μM test compound; FS1 substrate; read-out: % Inhibition (FS) 0.3 μM

Sample answers from the record:
>  <COMPOUND>
CN(C(=O)c1cccc(CN2Cc3cc(-c4ccccc4OC(F)(F)F)ccc3N=C2N)c1)C1CCCCC1 [Compound 324]

>  <SYSTEM>
β-secretase(BACE) (Homo sapiens)

>  <inhibition at 0.3 µM>
< 30%

$$$$
>  <COMPOUND>
CN(C(=O)c1cccc(CN2Cc3cc(Nc4ccccc4)ccc3N=C2N)c1)C1CCCCC1 [Compound 432]

>  <SYSTEM>
β-secretase(BACE) (Homo sapiens)

>  <inhibition at 0.3 µM>
< 30%

$$$$
>  <COMPOUND>
CN(C(=O)c1cccc(CN2Cc3cc(Oc4cccc(-c5ccccc5)c4)ccc3N=C2N)c1)C1CCCCC1 [Compound 231]

>  <SYSTEM>
β-secretase(BACE) (Homo sapiens)

>  <inhibition at 0.3 µM>
< 30%

$$$$
>  <COMPOUND>
NC1=Nc2ccc(Oc3ccccc3)cc2CN1CCNC(=O)NC12CC3CC(CC(C3)C1)C2 [Compound 206]

>  <SYSTEM>
β-secretase(BACE) (Homo sapiens)

>  <inhibition at 0.3 µM>
< 30%

$$$$
>  <COMPOUND>
NC1=Nc2ccc(-c3ccccc3)cc2CN1CCNC(=O)CC1CCCC1 [Compound 578]

>  <SYSTEM>
β-secretase(BACE) (Homo sapiens)

>  <inhibition at 0.3 µM>
< 30%

$$$$

Form: item CN(C(=O)c1cccc(CN2Cc3cc(-c4cccc5ccccc45)ccc3N=C2N)c1)C1CCCCC1 [Compound 330] ; test system β-secretase(BACE) (Homo sapiens); inhibition at 0.3 µM: < 30%
